Sequence of the target: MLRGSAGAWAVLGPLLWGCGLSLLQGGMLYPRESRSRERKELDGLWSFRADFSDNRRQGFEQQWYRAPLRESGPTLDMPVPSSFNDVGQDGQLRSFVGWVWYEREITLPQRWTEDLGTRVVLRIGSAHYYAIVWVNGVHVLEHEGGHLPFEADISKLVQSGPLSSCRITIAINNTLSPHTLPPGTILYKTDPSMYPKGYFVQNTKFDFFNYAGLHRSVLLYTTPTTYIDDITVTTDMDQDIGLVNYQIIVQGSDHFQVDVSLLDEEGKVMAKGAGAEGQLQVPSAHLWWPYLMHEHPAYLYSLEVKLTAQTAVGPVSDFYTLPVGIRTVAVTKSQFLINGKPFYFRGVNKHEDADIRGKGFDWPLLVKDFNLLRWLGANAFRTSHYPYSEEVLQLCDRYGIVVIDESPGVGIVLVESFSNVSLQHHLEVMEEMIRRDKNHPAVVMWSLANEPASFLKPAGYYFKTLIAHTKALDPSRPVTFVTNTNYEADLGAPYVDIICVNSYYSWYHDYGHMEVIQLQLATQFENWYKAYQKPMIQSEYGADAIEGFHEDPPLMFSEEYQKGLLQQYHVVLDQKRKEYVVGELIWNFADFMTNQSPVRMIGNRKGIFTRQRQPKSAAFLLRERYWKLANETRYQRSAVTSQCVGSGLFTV
Collected literature values of pIC50 measured for the protein given by its sequence.
The meaning of pIC50 here: minus log10 of the concentration in molar units.

See these solved cases before continuing.
                           substance_smiles  result
0  Clc1ccc(-c2csc(C/C=C/c3ccc4ccc5cccc6ccc3c4c56)n2)cc1    4.95
1      Oc1ccc(-c2nc3c(Cl)cc(Cl)cc3[nH]2)cc1    4.85
2   Oc1ccc(O)c(-c2nc3c(Cl)cc(Cl)cc3[nH]2)c1    4.94

Turning now to a further record.
stdin: For the molecule O=[N+]([O-])c1ccccc1S(=O)(=O)Nc1ccccc1SSc1ccccc1NS(=O)(=O)c1ccccc1[N+](=O)[O-] , what pIC50 is on record?
stdout: 4.85
